measurement type: melting point

Here are 3 compounds together with their reported answers.
compound="CCCC1N=C2C(=C(C)C(Cl)=NC2(N)CCOCCNC(=O)c2ccccc2)N1 (stereo unspecified)" measurement_type="melting point" value_measured="188 to 189 °C"
compound=CCCc1c(OCCCOc2cc(N)c(Cl)cc2C)ccc(C(C)=O)c1O measurement_type="melting point" value_measured="81 °C"
compound=COc1ncc(Cl)c(C)c1C(=O)O measurement_type="melting point" value_measured="127 to 129 °C"

Incoming: Looking for the measured melting point of "Cc1ccnc2[nH]c(=O)c(CC(=O)O)cc12" , can you help?
Outgoing: > 250 °C

Incoming: Same question for "CCOC(=O)C(=CNc1nccs1)C(=O)c1ccc(Cl)nc1Cl" please.
Outgoing: 119 to 122 °C

Incoming: Now the compound CC(C)(C)C(=O)NC1CCCNC(=O)C1 (stereo unspecified)
Outgoing: 106 to 107 °C
